This section presents binders with their documented Macrophage MFI values.
Biological target: T1, human CD33 (human, UniProt P20138 18-364)
T1 construct: CD33 on human primary dendritic cells, macrophages, monocytes and T cells and on CHO cells expressing recombinant human CD33; also called Siglec-3; hCD33
T1 sequence (P20138 18-364): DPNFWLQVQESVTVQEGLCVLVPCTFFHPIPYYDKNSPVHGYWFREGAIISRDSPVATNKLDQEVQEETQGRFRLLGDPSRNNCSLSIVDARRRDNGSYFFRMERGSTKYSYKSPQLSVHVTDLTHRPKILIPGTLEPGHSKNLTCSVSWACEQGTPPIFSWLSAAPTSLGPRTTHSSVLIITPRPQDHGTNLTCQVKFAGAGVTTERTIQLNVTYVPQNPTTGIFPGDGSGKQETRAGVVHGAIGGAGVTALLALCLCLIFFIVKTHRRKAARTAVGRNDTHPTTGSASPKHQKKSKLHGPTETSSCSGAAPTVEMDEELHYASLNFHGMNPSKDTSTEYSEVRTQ
Experiment: flow cytometry, human primary macrophages;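 note: binding of CD33 antibodies at 10 µg/ml to human primary macrophages, 1 h on ice, detected with PE-labelled secondary antibody by flow cytometry, reported as MFI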
Write the value as a bare number.

Some solved entries appear below for comparison.
C-38 (antibody, V domains shown, human IgG1) VH: QLQLQESGPGLVKPSETLSLTCTVSGGSISSSSYYWGWIRQPPGKGLEWIGSIYYSGSTYYNPSLKSRVTISVDTSKNQFSLKLSSVTAADTAVYYCAREATAAADHPGMDVWGQGTTVTVSS VL: DIQMTQSPSSLSASVGDRVTITCQASQDITNYLNWYQQKPGKAPKLLIYDASNLETGVPSRFSGSRSGTDFTFTISSLQPEDIATYYCQQYHDFPTFGGGTKVEIK; 904
C-11 (antibody, V domains shown, human IgG1) VH: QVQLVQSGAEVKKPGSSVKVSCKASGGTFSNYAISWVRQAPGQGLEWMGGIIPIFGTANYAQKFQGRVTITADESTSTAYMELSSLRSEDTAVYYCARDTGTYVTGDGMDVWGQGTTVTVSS VL: EIVMTQSPATLSVSPGERATLSCRASQSVSSNLAWYQQKPGQAPRLLIYSASTRATGIPARFSGSGSGTEFTLTISSLQSEDFAVYYCQQYIVLPITFGGGTKVEIK; 795

Record C-91 (antibody, V domains shown, human IgG1) VH: EVQLVESGGGLVQPGGSLRLSCAASGFTFSSYWMSWVRQAPGKGLEWVANIKSDGSEKYYVDSVKGRFTISRDNAKNSLYLQMNSLRAEDTAVYYCARDVGGDYSGSDLASYWGQGTLVTVSS VL: DIQMTQSPSSLSASVGDRVTITCRASQSISSYLNWYQQKPGKAPKLLIYAASSLQSGVPSRFSGSGSGTDFTLTISSLQPEDFATYYCQQGYDPPLTFGGGTKVEIK . Reported Macrophage MFI: 1230
